Ref: patent EP1019392B1

tested on: DLD-1-BAG human colon carcinoma cells expressing as activated K-ras gene; assay: Cell Mat Assay, DLD-1 tumor cells; assay type: cell-based; conditions: Homo sapiens, DLD-1, Mat assay
Readings of pIC50 for the listed compounds
Please keep in mind that pIC50 is minus log10 of the molar concentration; only the number is needed.

Would you please look over these solved cases?
compound	pIC50
NC(=O)N1CCC(CC(=O)N2CCC(=C3c4ccc(Cl)c(Br)c4CCc4cc(Br)cnc43)CC2)CC1 (racemic) [Example 15]	5.20
O=C(Cc1cc[n+]([O-])cc1)N1CCN([C@H]2c3ccc(Cl)c(Br)c3CCc3cc(Br)cnc32)CC1 [Example 5]	5.51
NC(=O)N1CCC(CC(=O)N2CCC(=C3c4ncc(Br)cc4CCc4cc(Cl)cc(Br)c43)CC2)CC1 (racemic) [Example 8]	5.51
NC(=O)N1CCC(CC(=O)N2CCN(C3c4ncc(Br)cc4CCc4cc(Cl)cc(Br)c43)CC2)CC1 (single isomer, unassigned) [Example 12A]	5.70
O=C(Cc1cc[n+]([O-])cc1)N1CCN([C@H]2c3ccc(Cl)cc3CCc3cc(Br)cnc32)CC1 [Example 16B]	5.20
O=C(Cc1cc[n+]([O-])cc1)N1CCC(C2c3ccc(Cl)c(Br)c3CCc3cc(Br)cnc32)CC1 (single isomer, unassigned) [Example 14A]	5.20

[in] Supply reported pIC50 belonging to this compound: NC(=O)N1CCC(CC(=O)N2CCN([C@@H]3c4ccc(Cl)cc4CCc4cc(Br)cnc43)CC2)CC1 [Example 17]
[out] 5.20

[in] Supply reported pIC50 belonging to this compound: O=C(Cc1cc[n+]([O-])cc1)N1CCC(=C2c3ccc(Cl)c(Br)c3CCc3cc(Br)cnc32)CC1 [Example 2]
[out] 5.20

----------
test system: DLD-1-BAG human colon carcinoma cells expressing as activated K-ras gene; assay: Cell Mat Assay, DLD-1 tumor cells; type: cell-based; conditions: Mat assay
measure: IC50

Would you please look over these solved cases?
compound	IC50
NC(=O)N1CCC(CC(=O)N2CCC(C3c4ncc(Br)cc4CCc4cc(Cl)cc(Br)c43)CC2)CC1 (stereo not drawn) [Example 10B]	1600 nM
O=C(Cc1cc[n+]([O-])cc1)N1CCN([C@H]2c3ncc(Br)cc3CCc3cc(Cl)cc(Br)c32)CC1 [Example 11A]	< 1600 nM

Next item in the queue.
[in] Quote DLD-1-BAG human colon carcinoma cells expressing as activated K-ras gene IC50 for entry NC(=O)N1CCC(CC(=O)N2CCC(=C3c4ncc(Br)cc4CCc4cc(Cl)cc(Br)c43)CC2)CC1 (single isomer, unassigned) .
[out] < 1600 nM

----------
Readings of pIC50 for the listed compounds
tested on: SW620-BAG human colon carcinoma cells expressing an activated K-ras gene; assay: Cell Mat Assay, SW620 tumor cells; assay type: cell-based; conditions: Homo sapiens, SW-620, Mat assay
Please keep in mind that pIC50 is minus log10 of the molar concentration; only the number is needed.

Would you please look over these solved cases?
compound	pIC50
O=C(Cc1cc[n+]([O-])cc1)N1CCC(=C2c3ccc(Cl)c(Br)c3CCc3cc(Br)cnc32)CC1	5.20
O=C(Cc1cc[n+]([O-])cc1)N1CCN([C@H]2c3ccc(Cl)cc3CCc3cc(Br)cnc32)CC1 [Example 16B]	4.60
O=C(Cc1cc[n+]([O-])cc1)N1CCN([C@H]2c3ccc(Cl)c(Br)c3CCc3cc(Br)cnc32)CC1	5.20
O=C(Cc1cc[n+]([O-])cc1)N1CCC(C2c3ccc(Cl)c(Br)c3CCc3cc(Br)cnc32)CC1 (single isomer, unassigned) [Example 14A]	4.90
O=C(Cc1cc[n+]([O-])cc1)N1CCN(C2c3ncc(Br)cc3CCc3cc(Cl)cc(Cl)c32)CC1 (single isomer, unassigned)	5.20

[in] Supply reported pIC50 belonging to this compound: NC(=O)N1CCC(CC(=O)N2CCN([C@H]3c4ccc(Cl)c(Br)c4CCc4cc(Br)cnc43)CC2)CC1
[out] 5.20

[in] Supply reported pIC50 belonging to this compound: O=C(Cc1cc[n+]([O-])cc1)N1CCC(=C2c3ncc(Br)cc3CCc3cc(Cl)cc(Br)c32)CC1 (racemic)
[out] 5.20

[in] Supply reported pIC50 belonging to this compound: NC(=O)N1CCC(CC(=O)N2CCC(C3c4ncc(Br)cc4CCc4cc(Cl)cc(Br)c43)CC2)CC1 (stereo not drawn)
[out] 5.51
